Biological target: RSV F protein of subtype A strain A2, on virus (respiratory syncytial virus subtype A …, UniProt P03420 26-574)
Assay: cell-based or functional assay
Neut IC50 (ug/ml) subtype A values, listed per item
Measurement Name: Neut IC50 (ug/ml) subtype A (µg/mL)

[[record]]
binder = "ADI-15654 (antibody, V domains shown, IgG; also called Antibody Number 218) VH: QVQLVQSGAEVKRPGSSVKVSCKASGGTSSSYIISWVRQAPGQGLEWMGGIIPIPISGAPTYAQKFQGRANYAQKFEGRLTITADRLTSTAYMELSSLTSEDTAVYYCVRDERNGGYWGQGTLVTVSS VL: QSALTQPASVSGSPGQSITISCTGTSNDVGAYNHVSWYQQHPGKAPKLMIYDVTNRPSGVSNRFSGSKSGNTASLTIFGLQTDDEADYYCSSYTISSTLVFGGGTQLTVL"
units_label = "µg/mL"
qual = "="
readout_number = 3.76

[[record]]
binder = "ADI-15609 (antibody, V domains shown, IgG) VH: EVQLLESGGGVVQPGRSLKLSCAASGFSFTTDVMHWIRQAPGKGLEWVAVISTDGANSYYAESVKGRFTISRDNSKNTLFLQMSSLRAEDTAVYYCASQGYHYVNMADVGVPSFDHWGQGTLVTVSS VL: ETTLTQSPSSLSASVGDRVTITCRARRSIDNYLNWYQHKPGTAPKLLIYAVSSLPSGVPSRFSGSGSGADFTLTISSLQPEDLATYYCQQSYMTPPTFGQGTKLEIK"
units_label = "µg/mL"
qual = "="
readout_number = 0.022

[[record]]
binder = "ADI-15603 (antibody, V domains shown, IgG) VH: QVQLVQSGGGLVQPGGSLRLSCAASGFTFGRHAMTWVRQAPGKGLEWVAGITATGDPTYYPDSVKGRFAVSRDNSRNTLYLQMDSLRVEDTALYYCARSWDDYGDLDWYFALWGRGTMVTVSS VL: EIVMTQSPAILSVSPGERATLSCRASQSVSSSLAWYQQKPGQAPRLLIYGASTRATGIPPRFSGSGSGTQFTLTISSLQSEDVAVYYCQQYSDWPPLTFGGGTKVEIK"
units_label = "µg/mL"
qual = "="
readout_number = 0.795

[[record]]
binder = "ADI-15572 (antibody, V domains shown) VH: QVQLVQSGAEAKKPGASVKVSCKASGYTFTSYYLHWVRQAPGQGPEWMGIINPGGGSTELSQKFQGRVTLTRDTSTSTVYMEVTSLTSEDTAVYYCARARIQLWAPNYYGMDVWGQGTTVTVSS VL: DIQLTQSPSFLSASVGDRVTITCRASHGITSYLAWYQQKPGNAPKLLIYAASTLQSGVPSRFSGSGSETQFTLTISGLQPEDFATYYCQQLNRYPLTFGQGTKVEIK"
units_label = "µg/mL"
qual = "="
readout_number = 9.48

[[record]]
binder = "ADI-15620 (antibody, V domains shown, IgG) VH: QVQLVQSGAEVKKPGASVKVSCKASGYTFTSYDINWVRQATGHGLEWMGWMSPNSGYTGYAQKFQGRVTMSRNTSTGTAYMELSSLRSEDTAVYYCAREARDLRVGATNFDYWGQGTLVTVSS VL: QPVLTQPPSVSVSPGQTASITCSGDKLGDKYISWYQQRPGQSPVMVIYQDSKGPSGIPERFSGSNSGNTATLTISGTQAMDEADYYCQAWDSSIDVVFGGGTKLTVL"
units_label = "µg/mL"
qual = "="
readout_number = 0.077

[[record]]
binder = "ADI-15664 (antibody, V domains shown) VH: EVQLVESGAEVKKPGSSVKVSCKASGGTFSSYAISWVRQAPGQGLEWMGGTIPIFGTINYAQKFQGRLTINADASTSTAYMELSSLRSEDTAVYFCARDRTTAVRYYAMDVWGQGTTVTVSS VL: EIVLTQSPATLSLSPGERATLSCRASQSVSSYLAWYQQKPGQAPRLLIYDTSNRATDIPARFSGSGSGTDFTLTISSLEPEDFAVYYCQHRANWPPLTFGGGTKVEIK"
units_label = "µg/mL"
qual = ">"
readout_number = 10

[[record]]
binder = "ADI-15658 (antibody, V domains shown, IgG) VH: EVQLVESGGGLVQPGRSLRLSCVTSGFGFDDYAMHWVRQAPGKGLEWVSGIGWNSGGIGYADSVKGRFSISRDNAKNSLYLQMNSLRPEDTAFYYCVKDGTPIAVAGYFEYWGQGTLVTVSS VL: SYELTQPPSASGTPGQRVTISCSGGRSNIGNNYVYWYQQLPGTAPKLLIYRHDQRPSGVPDRFSGSKSGTSASLAINGLRSEDEADYFCAVWDDSLSCYVFGAGTKLTVL"
units_label = "µg/mL"
qual = "="
readout_number = 6.25

[[record]]
binder = "ADI-15667 (antibody, V domains shown, IgG) VH: EVQLVESGGGLVQPGGSLRLSCAASGFTFSDFSMSWVRQAPGKGLEWVSLIKSSGYAYYADSVRGRFTISRDNSKNTLYLQMNSLRAEDTAIYYCAKDADFWSGAAYNGGYNFDSWGQGTLVTVSS VL: DIQMTQSPATLSVFPGDRATLSCRASQSVGSNLAWYQQKPGQAPRLLIFGASTRATGIPARFSGSGSGTEFTLTISSLQSEDFAVYYCQQYHNWPPLTFGGGTKVDIK"
units_label = "µg/mL"
qual = "="
readout_number = 0.039

[[record]]
binder = "ADI-15663 (antibody, V domains shown, IgG) VH: QVQLVQSGGGLVKPGGSLRLSCAASGFTFSSYTMNWVRQAPGKGLEWVSSITGGSSFTNYADSLEGRFTISRDNAKSSLFLQMNSLRVEDTAVYYCARDQPGTIFGVVQDYWGQGTLVTVSS VL: QSVLTQPPSVSGAPGQRVTISCTGGSSNIGAGYDVHWYQQLPGTAPKLLIYGNSNRPSGVPDRFSGSKSGTSASLAITGLQAEDEADYYCQSYDSRLSVVFGGGTKVTVL"
units_label = "µg/mL"
qual = "="
readout_number = 0.003

[[record]]
binder = "ADI-15666 (antibody, V domains shown, IgG; also called Antibody Number 230) VH: QVQLQQWGAGLLKPSETLSLTCGVSDGSFSAYYWNWIRQSPGKGLEWIGETNPSENTNYSPSLKNRVTISADRSANQFSLRLRSVTAADTGVYYCARGRGYYGSTTDYRGLHWFDPWGQGTLVTVSS VL: ETTLTQSPVTLSVSPGERATLSCRASQSVSFNLAWYQQKPGQAPRLLIYGASTRVTNLPLRFSGSGSGTEFTLTISSLQSEDFAVYYCQQYNNWPRTFGQGTKLEIK"
units_label = "µg/mL"
qual = "="
readout_number = 1.41

